system.name: PI3K-α (Homo sapiens)
assay.remarks: Assay c) PI3K cellular potency assay (phospho-Akt T308 ELISA in BT474 cells)
conditions.used: BT474 cells, phospho-Akt T308, 2 h; geometric mean where repeated; read-out: Assay c) PI3Kα Cell IC50
pIC50: −log10 of the molar value.
property.label: pIC50

smiles.entry | property.label | assay.value
CN(C)CCCOc1ccc(-c2ccc3ncc4[nH]c(=O)n(C5CCOCC5)c4c3c2)cn1 | pIC50 | 5.82
Cn1c(=O)n([C@@H]2CCCOC2)c2c3cc(-c4ccc(OCCCN5CCCC5)nc4)c(F)cc3ncc21 | pIC50 | 5.14
Cn1c(=O)n([C@H]2C[C@@H](O)C2)c2c3cc(-c4ccc(OCCCN5CCCC5)nc4)ccc3ncc21 | pIC50 | 5.62

a = CO[C@H]1CC[C@H](n2c(=O)n(C)c3cnc4ccc(-c5ccc(OCCCN(C)C)nc5)cc4c32)C1
b = CO[C@H]1C[C@@H](n2c(=O)[nH]c3cnc4ccc(-c5ccc(OCCCN(C)C)nc5)cc4c32)C1
Asked: Lab note: record which item had the higher pIC50, a or b . Indicate which entry you chose by stating its label.
Given back: a

P = CN(C)CCCOc1ccc(-c2ccc3ncc4c(c3c2)n([C@H]2CCOC2)c(=O)n4C)cn1
Q = CO[C@H]1CC[C@H](n2c(=O)n(C)c3cnc4cc(F)c(-c5ccc(OCCCN(C)C)nc5)cc4c32)C1
Asked: Lab note: check whether P or Q has the lower measured pIC50. Pick one and reply with its label.
Given back: Q

----------
system.name: PI3K-α (Homo sapiens, UniProt P42336)
Sequence (P42336 whole entry, looked up): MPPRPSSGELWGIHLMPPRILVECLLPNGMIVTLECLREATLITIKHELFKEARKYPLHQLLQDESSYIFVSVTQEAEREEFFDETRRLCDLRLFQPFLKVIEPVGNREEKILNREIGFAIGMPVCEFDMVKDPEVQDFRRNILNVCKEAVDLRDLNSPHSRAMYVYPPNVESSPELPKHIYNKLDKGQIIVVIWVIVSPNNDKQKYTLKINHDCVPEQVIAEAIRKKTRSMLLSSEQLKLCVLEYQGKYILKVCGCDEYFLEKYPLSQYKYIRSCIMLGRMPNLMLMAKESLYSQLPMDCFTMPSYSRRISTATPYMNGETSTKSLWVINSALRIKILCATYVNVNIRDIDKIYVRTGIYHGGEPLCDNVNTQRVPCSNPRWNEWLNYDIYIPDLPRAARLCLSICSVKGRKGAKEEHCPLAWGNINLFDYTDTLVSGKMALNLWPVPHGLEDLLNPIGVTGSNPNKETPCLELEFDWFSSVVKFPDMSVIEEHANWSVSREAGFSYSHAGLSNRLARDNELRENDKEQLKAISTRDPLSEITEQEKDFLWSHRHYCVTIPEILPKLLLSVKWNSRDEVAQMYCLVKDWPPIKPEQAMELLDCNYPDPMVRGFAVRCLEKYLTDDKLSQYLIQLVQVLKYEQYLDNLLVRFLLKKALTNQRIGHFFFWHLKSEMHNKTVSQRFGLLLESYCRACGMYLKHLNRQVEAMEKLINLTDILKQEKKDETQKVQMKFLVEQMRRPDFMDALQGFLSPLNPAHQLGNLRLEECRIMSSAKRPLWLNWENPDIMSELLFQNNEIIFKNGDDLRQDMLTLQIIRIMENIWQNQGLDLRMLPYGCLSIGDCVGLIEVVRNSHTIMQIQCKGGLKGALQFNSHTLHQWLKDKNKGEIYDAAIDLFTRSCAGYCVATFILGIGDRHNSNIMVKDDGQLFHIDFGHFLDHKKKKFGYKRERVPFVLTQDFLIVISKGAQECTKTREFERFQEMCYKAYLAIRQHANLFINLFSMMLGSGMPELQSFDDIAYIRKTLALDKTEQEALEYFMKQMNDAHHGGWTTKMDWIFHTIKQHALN
assay.remarks: Assay c) PI3K cellular potency assay (phospho-Akt T308 ELISA in BT474 cells)
Type: cell-based
conditions.used: BT474 cells, phospho-Akt T308, 2 h; geometric mean where repeated; read-out: Assay c) PI3Kα Cell IC50
pIC50: −log10 of the molar value. Where a name gives a salt, the structure may show the parent alone.
property.label: pIC50

molecule | pIC50
O=c1[nH]c2cnc3ccc(-c4ccc(OCCCN5CCCCC5)nc4)cc3c2n1C1CCOCC1 | < 4.60
CO[C@H]1CC[C@@H](n2c(=O)n(C)c3cnc4cc(F)c(-c5ccc(OCCCN(C)C)nc5)cc4c32)C1 | < 4.52
Cn1c(=O)n(C2CCC2)c2c3cc(-c4ccc(OCCCN5CCCC5)nc4)ccc3ncc21 | < 5.02

Next molecule, pIC50 to be filled in.
Sure, the documented pIC50 for Cn1c(=O)n(C2CCC2)c2c3cc(-c4ccc(OCCCN5CCCCC5)nc4)ccc3ncc21 [Example 57, trifluoroacetic acid salt] is < 4.84

----------
# pIC50 annotations
system.name: PI3K-α (Homo sapiens, UniProt P42336)
assay.remarks: Assay c) PI3K cellular potency assay (phospho-Akt T308 ELISA in BT474 cells)
conditions.used: BT474 cells, phospho-Akt T308, 2 h; geometric mean where repeated; read-out: Assay c) PI3Kα Cell IC50
pIC50: −log10 of the molar value.

Field: example entries. Status: answers known.
smiles.entry | pIC50
Cn1c(=O)n([C@H]2CCCOC2)c2c3cc(-c4ccc(OCCCN5CCCCC5)nc4)c(F)cc3ncc21 | < 4.63
CN(C)CCCOc1ccc(-c2cc3c(cc2F)ncc2c3n([C@H]3CCCOC3)c(=O)n2C)c(F)n1 | < 5.03
CO[C@H]1C[C@@H](n2c(=O)n(C)c3cnc4cc(F)c(-c5ccc(OCCCN(C)C)nc5F)cc4c32)C1 | < 4.55
Cn1c(=O)n([C@H]2CCCOC2)c2c3cc(-c4ccc(OCCCN5CCCC5)nc4F)ccc3ncc21 | < 4.79
CO[C@@H]1CC[C@@H](n2c(=O)n(C)c3cnc4ccc(-c5ccc(OCCCN6CCCCC6)nc5)cc4c32)C1 | < 4.52

Short answer for CO[C@H]1CC[C@H](n2c(=O)n(C)c3cnc4ccc(-c5ccc(OCCCN(C)C)nc5F)cc4c32)C1 : pIC50 was < 5.56

# compound CO[C@@H]1CC[C@H](n2c(=O)n(C)c3cnc4cc(F)c(-c5ccc(OCCCN(C)C)nc5)cc4c32)C1 ; its pIC50 = < 4.94
